# tested-system: TNF (Homo sapiens, UniProt P01375)
# Sequence (P01375 77-233 limits assumed): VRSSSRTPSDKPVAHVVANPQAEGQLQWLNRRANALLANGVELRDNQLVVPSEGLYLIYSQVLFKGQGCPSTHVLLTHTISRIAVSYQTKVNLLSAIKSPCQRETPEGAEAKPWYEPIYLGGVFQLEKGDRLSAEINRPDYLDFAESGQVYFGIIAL
# protocol-details: TNF FP Assay
# Type: binding
# particulars: TNF 20 nM, 25° C., 2 hours; Table 2
pIC50: −log10 of the molar value.
observable: pIC50

{"compound": "O=C(CCOCC(COCCC(=O)NCCOCCOCCOCCOC[C@H]1OC[C@H](Nc2cncc(C(F)(F)F)n2)[C@@H](O)[C@H]1O)NCC(=O)N1CCN(Cc2ccc(-c3c[nH]c4ccncc34)c(OCCc3ccc(-c4cccc5ccncc45)cc3)c2)CC1)NCCOCCOCCOCCOC[C@H]1OC[C@H](Nc2cncc(C(F)(F)F)n2)[C@@H](O)[C@H]1O [compound 2]", "pIC50": "< 6.00"}
{"compound": "CC1(C)C(=O)c2ccc(-c3cnc(N4CCN5C(=O)N(CCCNC(=O)c6ccc(C(=O)NC[C@H]7OC[C@H](Nc8cncc(C(F)(F)F)n8)[C@@H](O)[C@H]7O)cc6)C[C@@H]5C4)nc3)nc2N1Cc1cccnc1C#N [compound 13]", "pIC50": "< 6.00"}
{"compound": "CC1(C)C(=O)c2ccc(-c3cnc(N4CCN5C(=O)N(CCCNC(=O)COc6ccc(CN7CCN(C[C@H]8OC[C@H](Nc9cncc(C(F)(F)F)n9)[C@@H](O)[C@H]8O)CC7)cc6)C[C@@H]5C4)nc3)nc2N1Cc1cccnc1C#N [compound 12]", "pIC50": "6.30 to 7.00"}

Here's the next entry for you.
Ask | For the compound O=C(NC[C@H]1OC[C@H](Nc2cncc(C(F)(F)F)n2)[C@@H](O)[C@H]1O)N1CCN(Cc2ccc(-c3c[nH]c4ccncc34)c(OCCc3ccc(-c4cccc5ccncc45)cc3)c2)CC1 [compound 8] , what pIC50 is on record?
Reply | < 6.00
